# testedTarget: T1, SRA-Spacer-661 (human, UniProt Q96T88 414-661)
# T1 sequence: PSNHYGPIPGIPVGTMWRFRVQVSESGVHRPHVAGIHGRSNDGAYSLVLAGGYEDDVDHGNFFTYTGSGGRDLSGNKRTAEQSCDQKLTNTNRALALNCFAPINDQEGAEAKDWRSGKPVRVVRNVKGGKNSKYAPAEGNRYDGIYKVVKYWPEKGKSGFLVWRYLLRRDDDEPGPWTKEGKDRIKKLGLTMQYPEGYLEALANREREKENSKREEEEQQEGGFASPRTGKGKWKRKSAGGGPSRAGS
# assayNotes: FP; ITC: 10 mM HEPES pH 8.0, 100 mM NaCl, 18 C; EMSA: 20 mM HEPES pH 7.5, 100 mM NaCl, 8% glycerol, 1 mM DTT, on ice; pull-down: 20 mM HEPES-NaOH pH 8.0, 100 mM NaC
recordedMetric: pKd
pKd is defined as minus the log10 of a concentration measured in mol/L.

Enquiry: # lookup: pKd of FAM-12bp-HM-DNA (dsDNA, 5-methyl-dC at position 6 of strand 2 (GTCAGXGCATGG)) DNA 1: CCATGCGCTGAC DNA 2: GTCAGCGCATGG
Return: 6.42
